# target_entity: JAK2 kinase domain (JH1) (Homo sapiens (Human))
# Sequence (O60674 849-1124): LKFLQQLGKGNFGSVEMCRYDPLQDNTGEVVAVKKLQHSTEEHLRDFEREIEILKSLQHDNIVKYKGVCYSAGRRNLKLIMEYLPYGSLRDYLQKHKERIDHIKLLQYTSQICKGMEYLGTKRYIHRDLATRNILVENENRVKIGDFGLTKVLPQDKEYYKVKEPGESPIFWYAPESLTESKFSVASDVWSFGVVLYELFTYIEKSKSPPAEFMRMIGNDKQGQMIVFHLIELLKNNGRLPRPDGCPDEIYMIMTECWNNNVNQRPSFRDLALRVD
# run_description: JAK2 Radioactive Kinase Assay
# Type: biochemical
# experimental_parameters: compound at 10 μM; ATP 10 μM
readout: inhibition at 10 µM

{"compound": "CNc1cc(Nc2cc(Cl)cn(C3CCOCC3)c2=O)nc2c(C(=O)NCC(C)(C)CO)cnn12", "readout": "inhibition at 10 µM", "val": "< 50%"}
{"compound": "CNc1cc(Nc2cccc(N3CCOC4(CCOC4)C3)n2)nc2c(C(=O)NC3CC3)cnn12 (stereo not shown)", "readout": "inhibition at 10 µM", "val": "< 50%"}
{"compound": "CNc1cc(Nc2cc(F)cn(C3CCOCC3)c2=O)nc2c(C(=O)NCC(C)(C)CO)cnn12", "readout": "inhibition at 10 µM", "val": "< 50%"}

The record that follows has no inhibition at 10 µM shown yet.
Input CNc1cc(Nc2cccnc2OC2CC2)nc2c(C(=O)NC3CC4(COC4)C3)cnn12 . Output inhibition at 10 µM: 50 to 70%
